- System: NCI-H322M lung
- run.description: NCI-60 one-dose screen, 48 h (100 = growth as untreated, 0 = no growth, -100 = all killed)
- test.conditions: 10 µM
This is part of a sample that, as a whole, favours compounds with a hit. Of some 83,000 tested, about 20% had one in any assay. Active and inactive are the calls of the source. The calls were made as follows: active = growth percent below 10; inactive = the rest.
measured.endpoint: growth

Below, 5 molecules whose answers are already recorded.
CN(CCF)/N=N/c1nc[nH]c1C(N)=O: 60% (inactive)
CC1=C2C(=C[C@@](C)(COC(=O)c3ccc(S(=O)(=O)F)cc3)[C@@H]2OC(=O)c2ccc(S(=O)(=O)F)cc2)C(=O)[C@](C)(O)C12CC2: 9.18% (active)
COc1cc2c(cc1OC)[C@@H]1N(CC2)C(=O)c2ccccc2[C@@]1(C)C(=O)O: 102% (inactive)
C[C@@H]1C[C@H]2C(=O)O[C@@H](C)C(NC(=O)[C@H](Cc3cc(F)cc(F)c3)NC(=O)Nc3ccc(OS(=O)(=O)F)cc3)C(=O)N3CCC[C@H]3C(=O)N3CCO[C@H](C)[C@H]3C(=O)N[C@@H](CO)C(=O)N2C1 (stereo partly specified): 54% (inactive)
COc1cc2c(O[C@@H]3OC[C@H](OC(C)=O)[C@H](OC(C)=O)[C@H]3O)c3c(c(-c4ccc5c(c4)OCO5)c2cc1OC)C(=O)OC3: 61.5% (inactive)

API: the following record is the query input.
Input CCC(C)[C@H]1C(=O)O[C@H](C(C)C)C(=O)N(C)[C@@H](C(C)C)C(=O)O[C@H](C(C)C)C(=O)N(C)[C@@H](C(C)C)C(=O)O[C@H](C(C)C)C(=O)N1C (stereo partly specified) , output reported growth. 14.3% (inactive)

====

- System: COLO 205 colon
- run.description: NCI-60 one-dose screen, 48 h
- test.conditions: 10 µM
The panel holds about 83,000 compounds, 20% with a hit somewhere; the sample as a whole holds those more often. Active and inactive are the calls of the source. The calls were made as follows: active = growth percent below 10; inactive = the rest.
Outcome field: choose from 1.0 for active, 0.0 for inactive

COc1cccc2c1cc([N+](=O)[O-])c1c(C(=O)O)cc3c(c12)OCO3: 0.0
C[C@@H]1CCC/C=C/[C@H]2C[C@@H](O)C[C@@H]2[C@@H](O)/C=C/C(=O)O1: 1.0
CC(C)(O)/C=C/C(=O)[C@](C)(O)[C@H]1[C@H](O)C[C@@]2(C)[C@H]3CC=C4[C@@H](C[C@H](O)C(=O)C4(C)C)[C@]3(C)C(=O)C[C@]12C: 0.0
CC1=C2C(=C[C@@](C)(COC(=O)c3ccc(S(=O)(=O)F)cc3)[C@@H]2O)C(=O)[C@](C)(O)C12CC2: 1.0

We next turn to a different molecule, shown below.
What call does the record list for CC1=C2C(=C[C@@](C)(COC(=O)c3ccc(S(=O)(=O)F)cc3)[C@@H]2OC(=O)c2ccc(S(=O)(=O)F)cc2)C(=O)[C@](C)(O)C12CC2 ? 1.0

====

- Tested on: UACC-257 melanoma
- run.description: NCI-60 one-dose screen, 48 h
- test.conditions: 10 µM
Compounds without any hit were thinned out: in the full panel of roughly 83,000, 20% have a hit. The source made the active and inactive calls. How the source made its calls: active means growth percent below 10; inactive means the rest.
Outcome field: choose from true (1) = active, false (0) = inactive

CC1=C2C(=O)[C@](C)(CO)C=C2C(=O)[C@](C)(O)C12CC2: false (0)
CC1=C(CN(O)C(N)=O)C2=C(C)C3(CC3)[C@@](C)(O)C(=O)C2=C1: true (1)
Cc1ccc(CNc2nc3ccc(OC/C(=C/F)CN)cc3o2)cn1: false (0)

What call does the record list for O=C(CCCc1ccc(N(CCCl)CCCl)cc1)OCc1ccccc1 ? false (0)

What call does the record list for CC1=C2C(=C[C@@](C)(COC(=O)c3ccc(S(=O)(=O)F)cc3)[C@@H]2O)C(=O)[C@](C)(O)C12CC2 ? true (1)

What call does the record list for CN(CCF)/N=N/c1nc[nH]c1C(N)=O ? false (0)

What call does the record list for COc1cc2c(O[C@@H]3OC[C@H](OC(C)=O)[C@H](OC(C)=O)[C@H]3O)c3c(c(-c4ccc5c(c4)OCO5)c2cc1OC)C(=O)OC3 ? true (1)

What call does the record list for CN1C(=O)[C@]23SSC1(C)C(=O)N2[C@H]1Nc2ccccc2C1([C@@]12c4ccccc4N[C@@H]1N1C(=O)C4(C)SS[C@]1(C(=O)N4C)[C@H]2O)[C@@H]3O (stereo partly drawn) ? true (1)

What call does the record list for NC1CCc2cc(O)c(O)cc2C1 (stereo not drawn) ? false (0)

What call does the record list for CC1=C(CCC=NNC(N)=O)C2=C(C)C3(CC3)[C@@](C)(O)C(=O)C2=C1 ? true (1)

What call does the record list for COc1cc(OC)c(S(=O)(=O)N(CCCl)CCCl)cc1C(=O)/C=C/c1ccc(Cl)cc1 ? false (0)

What call does the record list for N#Cc1c(-n2c(Br)c(Br)c3cc(Br)ccc32)[nH]c2c(Br)cc(Br)cc12 ? true (1)

What call does the record list for CC1=C2C(=C[C@@](C)(COC(=O)c3ccc(S(=O)(=O)F)cc3)[C@@H]2OC(=O)c2ccc(S(=O)(=O)F)cc2)C(=O)[C@](C)(O)C12CC2 ? false (0)

====

Entries and their growth
- Tested on: U251 CNS
- run.description: NCI-60 one-dose screen, 48 h (100 = growth as untreated, 0 = no growth, -100 = all killed)
- test.conditions: 10 µM
The panel holds about 83,000 compounds, 20% with a hit somewhere; the sample as a whole holds those more often.
Report as a plain number; the unit % is understood.

CC1=C(CN(O)C(N)=O)C2=C(C)C3(CC3)[C@@](C)(O)C(=O)C2=C1: 4.97

Input CC(=O)O[C@@H]1[C@@H]2O[C@H]2[C@@](C)(O)C(=O)[C@@H](C)C/C=C/[C@H]2[C@@H]3O[C@]3(C)[C@@H](C)C3[C@H](Cc4ccccc4)NC(=O)[C@@]312 (stereo partly specified) , output reported growth. 43.1

Input COc1cc2c(O[C@@H]3OC[C@H](OC(C)=O)[C@H](OC(C)=O)[C@H]3O)c3c(c(-c4ccc5c(c4)OCO5)c2cc1OC)C(=O)OC3 , output reported growth. 28.5

Input CC1=C2C(=C[C@@](C)(COC(=O)c3ccc(S(=O)(=O)F)cc3)[C@@H]2OC(=O)c2ccc(S(=O)(=O)F)cc2)C(=O)[C@](C)(O)C12CC2 , output reported growth. -21.5

Input COc1cc2c(O[C@@H]3OC[C@H](O)[C@H](O)[C@H]3O)c3c(c(-c4ccc5c(c4)OCO5)c2cc1OC)C(=O)OC3 , output reported growth. 54.8

Input CC(C)=CCc1c2c(c(O)c3c1O[C@]14C(=C[C@@H]5C[C@H]1C(C)(C)O[C@@]4(C/C=C(/C)C(=O)O)C5=O)C3=O)C=CC(C)(C)O2 , output reported growth. -87.7

====

- System: OVCAR-4 ovarian
- run.description: NCI-60 one-dose screen, 48 h
- test.conditions: 10 µM
Compounds without any hit were thinned out: in the full panel of roughly 83,000, 20% have a hit. Activity calls are given as the source filed them. The calls were made as follows: active = growth percent below 10; inactive = the rest.
Outcome field: choose from T for active, F for inactive

C[C@@H]1C[C@H]2C(=O)O[C@@H](C)C(NC(=O)[C@H](Cc3cc(F)cc(F)c3)NC(=O)Nc3ccc(OS(=O)(=O)F)cc3)C(=O)N3CCC[C@H]3C(=O)N3CCO[C@H](C)[C@H]3C(=O)N[C@@H](CO)C(=O)N2C1 (stereo partly drawn): F
CC(=O)O[C@@H]1C[C@H]2O[C@@H]3C=C(C)CC[C@]3(C)[C@]1(C)[C@]21CO1: T

We next turn to a different compound, shown below.
What call does the record list for COC1[C@@H]2C[C@H]3C(C)(C)O[C@@](C/C=C(/C)C(=O)O)(C2=O)[C@]32Oc3c(CC=C(C)C)c4c(c(O)c3C(=O)[C@H]12)C=CC(C)(C)O4 (stereo partly drawn) ? T

====

- System: HL-60(TB) leukemia
- run.description: NCI-60 one-dose screen, 48 h (100 = growth as untreated, 0 = no growth, -100 = all killed)
- test.conditions: 10 µM unless noted
- Protocol: Growth inhibition of the HL-60(TB) human tumor cell line is measured as a screen for anti-cancer activity. Cells are grown in 96 well plates and exposed to the test compound for 48 hours. Compounds are tested at a single concentration, which is 10^-5 M for most compounds. The reported endpoint is percent growth (GI% or GIPRCNT), where numbers from 0 - 100% represent growth inhibition, and numbers from -100% - 0 represent cell death. For example, a value of 40 represents 60% growth inhibition. […]
This is part of a sample that, as a whole, favours compounds with a hit. Of some 83,000 tested, about 20% had one in any assay.
measured.endpoint: growth (%)
Report as a plain number; the unit % is understood.

CCOC(=O)c1csc(NC(=O)CSc2nc3sc4c(c3c(=O)n2-c2ccc(Cl)cc2)CCCC4)n1: 92.1
COc1ccc2c(ccn2C(=O)N2c3ccccc3Sc3ccccc32)c1: 13.7
COc1ccc(/C(=N\N=C(N)N)c2ccc(Cl)cc2)cc1OC: 44.9

Input C=C(C)[C@@H]1CC[C@]2(C(=O)O)CC[C@]3(C)[C@H](CC[C@@H]4[C@@]5(C)C/C(=C/c6ccccn6)C(=O)C(C)(C)[C@@H]5CC[C@]43C)[C@@H]12 , output reported growth. 15.3

Input CCC(CC)N1C(=O)/C(=c2\sc3n(c2=O)C2C(NN=3)N(CC)C(=O)N2CC)c2ccccc21 (stereo not drawn) , output reported growth. -17.8
